- Test system: PC-3 prostate
- method notes: NCI tumour cell line growth inhibition, 48 h; in the data active = GI50 below about 0.43 µM; inactive = the rest
Hello, when you answer, please use one of the following outcomes: Y (active), N (inactive)

>  <compound>
COc1c(OC[C@H](O)CN2CCOCC2)ccc2c3n(c(=NC(=O)c4cccnc4C)nc12)CCN3

>  <category>
Y

$$$$

Prompt: Field: outcome | Entry: CNCC#Cc1c(F)ccc2c1/C(=C/c1[nH]ccc1OC)C(=O)N2
Response: Y

Prompt: Dear colleague, could you share the recorded outcome for CO/N=C(\COc1ccc2c(c1)oc(=O)c1cc(OC)ccc12)c1ccc(OC)cc1 when you have a moment?
Response: N

Prompt: // outcome(item) with item = O=C1OCC2=C1C(c1cccc(Br)c1)c1cc3c(cc1N2CCO)CCC3 (centres undefined)
Response: Y

Prompt: Please let me know the test result on file for O=C(CC1(O)C(=O)N(Cc2ccccc2)c2ccc(F)cc21)c1ccc(C(=O)NCC2CCC3(CC2)OOC2(CCCCC2)OO3)cc1 (centres undefined) .
Response: N

Prompt: Check the results log: what was the call for Cc1ccc(NC(=O)CC2CC2)cc1-c1ccc(C(=O)NCC2CC2)cc1 ?
Response: N

###

# Lookup of reported TGI keyed by entry
- Test system: MDA-MB-231 breast
- method notes: NCI tumour cell line growth inhibition, 48 h
Write it as a number; the unit µM goes unstated.

>  <molecule>
COc1ccc(-c2nn(-c3ccc(NC(=O)c4ccc(Cl)c(Cl)c4)cc3)cc2-c2ccncc2)cc1Cl

>  <TGI / µM>
2.96

$$$$
>  <molecule>
CC1OC(OC2C(O)COC(OC3C(C)OC(OC4C(OC(=O)[C@]56CCC(C)(C)C[C@@H]5C5=CCC7[C@@]8(C)C[C@H](O)[C@H](OC9OC(CO)C(O)C(O)C9O)[C@@](C)(CO)[C@@H]8CC[C@@]7(C)[C@]5(C)CC6)OCC(O)C4O)C(O)C3OC3OCC(O)(CO)C3O)C2O)C(O)C(O)C1O (some centres not stated)

>  <TGI / µM>
30

$$$$
>  <molecule>
C#C[C@]1(O)CCC2C3CCc4cc(O)ccc4C3CC[C@@]21C (some centres not stated)

>  <TGI / µM>
47.2

$$$$

Kindly consider the entry below.
Prompt: Which TGI is listed for Cc1nn(-c2ccccc2)c2c1C(c1ccc(Cl)cc1)NC(=S)N2 (configuration not stated) ?
Response: 51.2

###

- Tested on: UACC-62 melanoma
- method notes: NCI tumour cell line growth inhibition, 48 h
Readings of TGI for the listed compounds

Solved cases (2 shown):
>  <compound>
O=C1/C(=C/c2ccc(Cl)cc2)CCC1CCN1CCOCC1 (stereo not given)

>  <target under test>
UACC-62 melanoma

>  <TGI>
> 100 µM

$$$$
>  <compound>
COc1ccc(P2(=S)OC(C)(C)C(C)(C)O2)cc1

>  <target under test>
UACC-62 melanoma

>  <TGI>
> 100 µM

$$$$

Prompt: Which TGI is listed for NCCNc1c2c(c(NCCN)c3[nH]ccc13)C(=O)c1ccccc1C2=O ?
Response: 0.372 µM

###

- System: MOLT-4 leukemia
- method notes: NCI tumour cell line growth inhibition, 48 h
The reader will find reported TGI values listed item by item below.

Consider the reported TGI for these compounds:
>  <compound>
CCOC(=O)c1nnc2c(C(=O)OCC)c3ccccc3n2c1N

>  <result>
> 100 µM

$$$$
>  <compound>
COc1cc(Cn2c(-c3ccccc3)c(Cl)c3c2-c2oncc2CC3)cc(OC)c1

>  <result>
> 100 µM

$$$$
>  <compound>
Cc1ncc(C(=O)Nc2ccc(CN3CCN(C)CC3)c(C(F)(F)F)c2)cc1C#Cc1cnc(N)c2ccncc12

>  <result>
4.62 µM

$$$$
>  <compound>
CC1c2c(Cl)nc3ccccc3c2Oc2c1c(Cl)nc1ccccc21

>  <result>
> 100 µM

$$$$

Read the next record carefully.
Prompt: # query: TGI of entry Cc1ccc(NC(=O)CCc2cc(C(C)(C)C)nc(=S)[nH]2)cc1C
Response: > 100 µM
